Here's what we have: pKi numbers for UniProt P14842.
Sequence (P14842 whole entry): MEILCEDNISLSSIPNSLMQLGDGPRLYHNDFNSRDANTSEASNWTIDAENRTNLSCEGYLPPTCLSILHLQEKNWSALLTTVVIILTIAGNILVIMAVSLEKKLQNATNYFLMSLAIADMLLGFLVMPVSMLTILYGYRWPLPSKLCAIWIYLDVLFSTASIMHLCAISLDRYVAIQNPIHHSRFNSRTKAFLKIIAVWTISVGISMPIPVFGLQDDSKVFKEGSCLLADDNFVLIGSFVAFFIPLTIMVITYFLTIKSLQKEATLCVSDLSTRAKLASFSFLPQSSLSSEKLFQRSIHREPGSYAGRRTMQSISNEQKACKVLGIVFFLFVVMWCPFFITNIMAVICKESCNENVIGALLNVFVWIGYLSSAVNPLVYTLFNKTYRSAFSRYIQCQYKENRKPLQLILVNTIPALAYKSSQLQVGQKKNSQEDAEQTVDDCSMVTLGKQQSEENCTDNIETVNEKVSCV
Numbers only, as −log10 of the molar value.

Look up pKi for the entries below, preserving their order.
1. c1csc(Cc2ccccc2OC[C@H]2CNCCO2)c1 [B]
2. c1csc(Cc2ccccc2OCC2CNCCO2)c1 (racemic) [teniloxazine, reference compound]

Given back:
1. 6.00
2. 7.31
